The reported numbers originate from paper PMC12627862.

assay: Lipophilicity of peptides, logP(oct/wat); type: physicochemical
Starred links: 1 amine or outer side, 2 acyl side, 3 side chain; linkers in the order of their positions; H or OH if unused. Non-standard residues stand in square brackets, D forms with d. Residues, ends and D or L forms follow the SMILES beside them. Leu(4,5-dehydro) = C=C(C)C[C@H](N)C(=O)O; X4 = C=C(C)C[C@@H](N[*:1])C(=O)[*:2]; dVal(3-OH) = CC(C)(O)[C@@H](N)C(=O)O
readout.type: logD

INSERT INTO assay_data (compound, readout_type, data_value) VALUES
  ('CC[C@H](C)[C@H](NC(=O)CC(O)CNC(=O)[C@@H]1[C@@H]2CCCC[C@@H]2CN1C(=O)[C@H](CC(C)(C)C)NC(=O)c1cccc(CNC(=O)[C@H](NC(=O)[C@@H](N)Cc2ccccc2)C(C)(C)O)c1)C(=O)O (stereo partly drawn) [compound 041]', 'logD', 0.71),
  ('C=C(C)C[C@H](NC(=O)c1ccc(CNC(=O)CC(O)CNC(=O)[C@H](N)Cc2ccccc2)cc1)C(=O)N1[C@H](C(=O)NCC(O)CC(=O)N[C@@H](CC(C)(C)C)C(=O)O)C[C@@H]2CCCC[C@@H]21 (stereo partly drawn) [compound 102]', 'logD', 0.2),
  ('C=C(C)C[C@H](NC(=O)[C@@H](NC(=O)[C@@H]1CCCN1C(=O)[C@@H](CC(=C)C)NC(=O)[C@H](CCC(=O)O)NC(=O)[C@H](NC(=O)[C@H](N)Cc1ccccc1)C(C)(C)O)[C@@H](C)O)C(=O)O [compound 049] (H-[dF][dVal(3-OH)]E[X4]PT[Leu(4,5-dehydro)]-OH)', 'logD', -0.71);

====

experiment: Pharmacokinetic studies in rats; conditions: male, Crl:CD (SD), rat, in vivo, iv, 5 mg/kg
Starred links: 1 amine or outer side, 2 acyl side, 3 side chain; linkers in the order of their positions; H or OH if unused. Non-standard residues stand in square brackets, D forms with d. Residues, ends and D or L forms follow the SMILES beside them. ξ: configuration not given here. Oic = O=C(O)[C@@H]1C[C@@H]2CCCC[C@@H]2N1; GABOB(3R) = O=C(C[C@@H](O)CN[*:1])[*:2]; tBuAla = CC(C)(C)C[C@H](N)C(=O)O; ξVal(3-OH) = CC(C)(O)C(N)C(=O)O; 4Amb = NCc1ccc(C(=O)O)cc1
readout.type: Tmax (min)

INSERT INTO results (compound, readout_type, data_value) VALUES
  ('CC(C)(C)C[C@@H]1NC(=O)C[C@@H](O)CNC(=O)[C@@H]2C[C@@H]3CCCC[C@@H]3N2C(=O)[C@H](CC(C)(C)C)NC(=O)c2ccc(cc2)CNC(=O)C(C(C)(C)O)NC(=O)[C@@H](Cc2ccccc2)NC1=O (stereo partly drawn) [compound 109] (cyclo([4Amb][tBuAla][Oic][GABOB(3R)][tBuAla][dF][ξVal(3-OH)]))', 'Tmax', 1.98);

====

assay: in vivo; conditions: male, Crl:CD (SD), rat, iv, 5 mg/kg
Starred links: 1 amine or outer side, 2 acyl side, 3 side chain; linkers in the order of their positions; H or OH if unused. Non-standard residues stand in square brackets, D forms with d. Residues, ends and D or L forms follow the SMILES beside them. ξ: configuration not given here. Oic = O=C(O)[C@@H]1C[C@@H]2CCCC[C@@H]2N1; GABOB(3R) = O=C(C[C@@H](O)CN[*:1])[*:2]; tBuAla = CC(C)(C)C[C@H](N)C(=O)O; ξVal(3-OH) = CC(C)(O)C(N)C(=O)O; 4Amb = NCc1ccc(C(=O)O)cc1
readout.type: level at 8 h (ng/mL)

INSERT INTO assay_data (compound, data_value) VALUES
  ('CC(C)(C)C[C@@H]1NC(=O)C[C@@H](O)CNC(=O)[C@@H]2C[C@@H]3CCCC[C@@H]3N2C(=O)[C@H](CC(C)(C)C)NC(=O)c2ccc(cc2)CNC(=O)C(C(C)(C)O)NC(=O)[C@@H](Cc2ccccc2)NC1=O (stereo partly drawn) [compound 109] (cyclo([4Amb][tBuAla][Oic][GABOB(3R)][tBuAla][dF][ξVal(3-OH)]))', 42.7);
